Origin of values: the supplement of paper PMC10126150

tested on: ATP; experiment: switch fluorescence ratio, 500 uM ATP over buffer (Cy3 cluster intensity, sum of 5 cycles each) (fold (ratio)); higher = stronger signal-on switching upon ATP binding; sequences stand for … in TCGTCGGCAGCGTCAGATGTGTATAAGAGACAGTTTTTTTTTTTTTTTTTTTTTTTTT…TC; details: aptamer strand: ATP DNA aptamer (quencher-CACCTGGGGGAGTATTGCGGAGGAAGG + anchor), 100 nM annealed; ATP concentration: 500 uM;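 note: ATP exposure 15 min at 22 °C before imaging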
Catalogue of switch fluorescence ratio values

Worked cases, switch fluorescence ratio given:
GATAGACGGA; 0.992
CAGTCTGGTG; 1.01
TAAGGCGGTT; 0.984
CGTCGATAAT; 1.03
GTTTTAGGCT; 0.973

Exam item: Answer with the recorded switch fluorescence ratio for the sequence listed here: `GCTTTTACGG`
Marked response: 1.07

Exam item: Answer with the recorded switch fluorescence ratio for the sequence listed here: `AATTGAAGGC`
Marked response: 0.972

Exam item: Answer with the recorded switch fluorescence ratio for the sequence listed here: `TGCGGGCGTT`
Marked response: 0.993

Exam item: Answer with the recorded switch fluorescence ratio for the sequence listed here: `CCGTGAGAAT`
Marked response: 1.07

Exam item: Answer with the recorded switch fluorescence ratio for the sequence listed here: `GATAAGGGGT`
Marked response: 0.981

Exam item: Answer with the recorded switch fluorescence ratio for the sequence listed here: `AATATGTGTA`
Marked response: 0.987

Exam item: Answer with the recorded switch fluorescence ratio for the sequence listed here: `TCCCATTTTG`
Marked response: 1.01

Exam item: Answer with the recorded switch fluorescence ratio for the sequence listed here: `CCCAGGAGGC`
Marked response: 1.08

Exam item: Answer with the recorded switch fluorescence ratio for the sequence listed here: `AAGTAGAATT`
Marked response: 1.01

Exam item: Answer with the recorded switch fluorescence ratio for the sequence listed here: `ATCTAGGGTG`
Marked response: 1.08

Exam item: Answer with the recorded switch fluorescence ratio for the sequence listed here: `GGGTAGGTGC`
Marked response: 1.13

Exam item: Answer with the recorded switch fluorescence ratio for the sequence listed here: `CAATTACGCA`
Marked response: 1.19

Exam item: Answer with the recorded switch fluorescence ratio for the sequence listed here: `GATATCTCCT`
Marked response: 1.09

Exam item: Answer with the recorded switch fluorescence ratio for the sequence listed here: `TCCGTTGTTT`
Marked response: 1.03

Exam item: Answer with the recorded switch fluorescence ratio for the sequence listed here: `GGGTCCGGCG`
Marked response: 0.995

* * *

Catalogue of switch fluorescence ratio values
system: ATP; assay: switch fluorescence ratio, 500 uM ATP over buffer (Cy3 cluster intensity, sum of 5 cycles each) (fold (ratio)); higher = stronger signal-on switching upon ATP binding; sequences stand for … in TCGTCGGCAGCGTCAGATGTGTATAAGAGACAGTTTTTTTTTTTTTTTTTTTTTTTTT…TC; details: aptamer strand: ATP DNA aptamer (quencher-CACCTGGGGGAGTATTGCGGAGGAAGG + anchor), 100 nM annealed; ATP concentration: 500 uM;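 note: ATP exposure 15 min at 22 °C before imaging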
# print the numeric value only

CCGGGGTTAG; 1.38
TTAGGAGGTG; 1.08
CGCGCGGAAC; 0.98
ATGATGCTGG; 1.02

Exam item: Answer with the recorded switch fluorescence ratio for the sequence listed here: `CATAAGGTAT`
Marked response: 0.999

Exam item: Answer with the recorded switch fluorescence ratio for the sequence listed here: `TATTTAGGCG`
Marked response: 0.99

Exam item: Answer with the recorded switch fluorescence ratio for the sequence listed here: `CGGTTATGTA`
Marked response: 0.989

Exam item: Answer with the recorded switch fluorescence ratio for the sequence listed here: `ACGGTGCTTG`
Marked response: 0.99

Exam item: Answer with the recorded switch fluorescence ratio for the sequence listed here: `ACATGTTATA`
Marked response: 1

* * *

tested on: ATP; assay: switch fluorescence ratio, 500 uM ATP over buffer (Cy3 cluster intensity, sum of 5 cycles each) (fold (ratio)); higher = stronger signal-on switching upon ATP binding; sequences stand for … in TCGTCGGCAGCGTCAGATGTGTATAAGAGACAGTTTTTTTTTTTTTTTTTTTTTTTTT…TC; details: aptamer strand: ATP DNA aptamer (quencher-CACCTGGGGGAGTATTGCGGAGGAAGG + anchor), 100 nM annealed; ATP concentration: 500 uM;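 note: ATP exposure 15 min at 22 °C before imaging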
Outcome label depends on switch fluorescence ratio relative to 1: at/above gives met, below gives not met.

Sample answers from the record:
GAGAGGCTGT; not met
ACCTAGCTTC; met
GACCAAGAAT; met

Exam item: For this sequence, is measured switch fluorescence ratio 1 or higher? `ATTTAGTACT`
Marked response: met

Exam item: For this sequence, is measured switch fluorescence ratio 1 or higher? `AGAGAACCCT`
Marked response: met

Exam item: For this sequence, is measured switch fluorescence ratio 1 or higher? `ACTCTATAAT`
Marked response: met

Exam item: For this sequence, is measured switch fluorescence ratio 1 or higher? `AATTGTGGAG`
Marked response: not met

Exam item: For this sequence, is measured switch fluorescence ratio 1 or higher? `CGTGCTGTA`
Marked response: met

* * *

Catalogue of switch fluorescence ratio values
test system: ATP; experiment: switch fluorescence ratio, 500 uM ATP over buffer (Cy3 cluster intensity, sum of 5 cycles each) (fold (ratio)); higher = stronger signal-on switching upon ATP binding; sequences stand for … in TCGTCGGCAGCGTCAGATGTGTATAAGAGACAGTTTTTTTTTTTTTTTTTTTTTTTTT…TC; conditions: aptamer strand: ATP DNA aptamer (quencher-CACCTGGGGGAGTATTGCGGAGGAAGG + anchor), 100 nM annealed; ATP concentration: 500 uM;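 note: ATP exposure 15 min at 22 °C before imaging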
# print the numeric value only

Worked cases, switch fluorescence ratio given:
GCTCGGAGGA; 1
AGTTGTTTTT; 0.983
TGGTCGGGGG; 0.997
TTTTTTATGA; 1.03
CTGGGGATTG; 1.01
GCGTAAAGGG; 0.99

# next sequence below
Exam item: Answer with the recorded switch fluorescence ratio for the sequence listed here: `ATCTAGTAGT`
Marked response: 1.01

* * *

system: ATP; test: switch fluorescence ratio, 500 uM ATP over buffer (Cy3 cluster intensity, sum of 5 cycles each) (fold (ratio)); higher = stronger signal-on switching upon ATP binding; sequences stand for … in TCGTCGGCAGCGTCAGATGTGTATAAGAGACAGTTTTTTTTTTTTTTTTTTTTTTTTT…TC; conditions: aptamer strand: ATP DNA aptamer (quencher-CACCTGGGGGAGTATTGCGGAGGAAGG + anchor), 100 nM annealed; ATP concentration: 500 uM;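 note: ATP exposure 15 min at 22 °C before imaging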
Outcome label depends on switch fluorescence ratio relative to 1: at/above gives t, below gives f.

Sample answers from the record:
CCTTCCGTTC; t
TCCTTGCTGT; t

Exam item: For this sequence, is measured switch fluorescence ratio 1 or higher? `TTGTAAATGC`
Marked response: t

Exam item: For this sequence, is measured switch fluorescence ratio 1 or higher? `CTTCATAGGG`
Marked response: f

Exam item: For this sequence, is measured switch fluorescence ratio 1 or higher? `GTGTTATGTG`
Marked response: f

Exam item: For this sequence, is measured switch fluorescence ratio 1 or higher? `ATTATATGGA`
Marked response: f

Exam item: For this sequence, is measured switch fluorescence ratio 1 or higher? `ACGGGAAGGG`
Marked response: t

* * *

Catalogue of switch fluorescence ratio values
tested on: ATP; assay: switch fluorescence ratio, 500 uM ATP over buffer (Cy3 cluster intensity, sum of 5 cycles each) (fold (ratio)); higher = stronger signal-on switching upon ATP binding; sequences stand for … in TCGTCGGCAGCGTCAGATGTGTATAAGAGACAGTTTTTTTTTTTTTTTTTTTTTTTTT…TC; settings: aptamer strand: ATP DNA aptamer (quencher-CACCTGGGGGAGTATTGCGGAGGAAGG + anchor), 100 nM annealed; ATP concentration: 500 uM;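 note: ATP exposure 15 min at 22 °C before imaging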
# print the numeric value only

Worked cases, switch fluorescence ratio given:
GCGCATAGGG; 1.04
CGTATTCATA; 0.977
GAGTCATGTG; 1.01
CGGGCTGGGG; 0.993
GGTTGCGCTT; 1.29
AGAATGGTAT; 1.07
TGACCCGGGT; 1.02
TCAGATTAGT; 0.968

Exam item: Answer with the recorded switch fluorescence ratio for the sequence listed here: `GGGGCCGGGA`
Marked response: 1.12

* * *

test system: ATP; experiment: switch fluorescence ratio, 500 uM ATP over buffer (Cy3 cluster intensity, sum of 5 cycles each) (fold (ratio)); higher = stronger signal-on switching upon ATP binding; sequences stand for … in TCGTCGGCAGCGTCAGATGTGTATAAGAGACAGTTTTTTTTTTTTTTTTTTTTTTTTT…TC; conditions: aptamer strand: ATP DNA aptamer (quencher-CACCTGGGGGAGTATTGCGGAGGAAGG + anchor), 100 nM annealed; ATP concentration: 500 uM;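 note: ATP exposure 15 min at 22 °C before imaging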
Catalogue of switch fluorescence ratio values
# print the numeric value only

Worked cases, switch fluorescence ratio given:
TAGCTGGCTG; 0.986
ATTCGGCCTT; 1.01

Exam item: Supply switch fluorescence ratio measured with ATP for `GGAACATAG` .
Marked response: 0.999

Exam item: Supply switch fluorescence ratio measured with ATP for `AATTATTTT` .
Marked response: 0.993

Exam item: Supply switch fluorescence ratio measured with ATP for `CTTCTGAGGG` .
Marked response: 1.02

Exam item: Supply switch fluorescence ratio measured with ATP for `ATCATTCAAA` .
Marked response: 1.01

Exam item: Supply switch fluorescence ratio measured with ATP for `GGTTTGGGGC` .
Marked response: 1.03
